Item-by-item account of abundance fitness
B1: Myocardin-related transcription factor A, residues 341 to 383; numbered along this chain, Q969V6 (parent)
chain: GALPANLDDMKVAELKQELKLRSLPVSGTKTELIERLRAYQDQ

Variants of: B1
Assay: abundance fitness (aPCA) (normalised: wild type 0, dead -1); higher = more abundant; growth selection in yeast, the domain comes from the species named
Settings: Homo sapiens

{"Variant id": "V26K", "abundance fitness": -0.195}
{"Variant id": "Q41H", "abundance fitness": -0.125}
{"Variant id": "G28V", "abundance fitness": -1.38}
{"Variant id": "L21P", "abundance fitness": -0.593}
{"Variant id": "S23P", "abundance fitness": -0.834}
{"Variant id": "K30M", "abundance fitness": -0.332}
{"Variant id": "R38F", "abundance fitness": -0.626}
{"Variant id": "S27K", "abundance fitness": -0.196}
{"Variant id": "I34R", "abundance fitness": -0.146}
{"Variant id": "E32T", "abundance fitness": -0.143}
{"Variant id": "G28A", "abundance fitness": -1.02}
